# TARGET UNDER TEST: T1, soluble EpoR (EposR) (human, UniProt P19235 25-250, limits assumed)
# T1 construct: also called soluble recombinant human EpoR
# T1 sequence (looked up): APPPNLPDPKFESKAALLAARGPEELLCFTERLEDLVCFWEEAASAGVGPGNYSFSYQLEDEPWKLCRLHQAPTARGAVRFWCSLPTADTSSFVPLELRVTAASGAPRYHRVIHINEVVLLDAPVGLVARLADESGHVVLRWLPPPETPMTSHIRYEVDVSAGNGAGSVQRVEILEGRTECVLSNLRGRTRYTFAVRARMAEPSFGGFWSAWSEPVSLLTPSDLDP
# EXPERIMENTAL DETAILS: SPR (BIAcore), IgG2/K antibody, EposR as test antigen
ASSAY ENDPOINT: koff (s⁻¹)
The response must be a number in s⁻¹ with no trailing unit.

Ab12 IgG2/K (antibody, V domains shown, Human IgG2/kappa) VH: QVQLQESGPGLVKPSETLSLTCTVSGASISSYYWSWIRQPPGKGLEWIGYIYYSGSTNYNPSLKSRVTISVDTSKNQFSLKLRSVTAADTAVYYCARERLGIGDYWGQGTLVTVSS VL: DIQLTQSPSSLSASVGDRVTITCRASQGIRNDLGWYQQKPGKAPKRLIYAASSLQSGVPSRFSGSGSGTEFTLTISSLQPEDFATYYCLQHNTYPPTFGQGTKVEIK ... 0.0013
Ab12.6 (antibody, V domains shown, CDRH2 Y Y S is changed to G G E against Ab12; also called H2-1-3 R2 #6) VH: QVQLQESGPGLVKPSETLSLTCTVSGASISSYYWSWIRQPPGKGLEWIGYIGGEGSTNYNPSLKSRVTISVDTSKNQFSLKLRSVTAADTAVYYCARERLGIGDYWGQGTLVTVSS VL: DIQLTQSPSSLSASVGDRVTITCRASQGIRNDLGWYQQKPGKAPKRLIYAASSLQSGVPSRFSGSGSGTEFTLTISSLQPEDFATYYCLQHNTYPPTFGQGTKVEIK ... 0.0048
Ab12.70 (antibody, V domains shown, also called H2-4-1 R2 #8,9) VH: QVQLQESGPGLVKPSETLSLTCTVSGASISSYYWSWIRQPPGKGLEWIGYIYSPSSTNYNPSLKSRVTISVDTSKNQFSLKLRSVTAADTAVYYCARERLGIGDYWGQGTLVTVSS VL: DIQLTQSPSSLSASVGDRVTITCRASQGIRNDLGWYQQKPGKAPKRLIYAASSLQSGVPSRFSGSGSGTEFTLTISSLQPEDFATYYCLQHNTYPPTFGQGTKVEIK ... 0.00099

Would you kindly share the measured koff for Ab12.56 (antibody, V domains shown, CDRH2 Y Y S is changed to A G T against Ab12) VH: QVQLQESGPGLVKPSETLSLTCTVSGASISSYYWSWIRQPPGKGLEWIGYIAGTGSTNYNPSLKSRVTISVDTSKNQFSLKLRSVTAADTAVYYCARERLGIGDYWGQGTLVTVSS VL: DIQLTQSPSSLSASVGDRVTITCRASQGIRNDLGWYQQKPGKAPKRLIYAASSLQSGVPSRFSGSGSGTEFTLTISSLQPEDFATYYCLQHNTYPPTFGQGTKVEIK ?
0.0019
